Tested on: human Factor XI mRNA
Assay: Dose-dependent inhibition in HepB3 cells, lipofectin (Example 7)
Format: cell-based
Details: 37.5 nM, approx. 16 h
measurement.label: percent inhibition of human Factor XI mRNA (%)
Could you give me the number in %? Just the number is fine.

{"columns": ["substance", "units", "reported.value"],
 "data": [
  ["416892 (antisense GCCCTTCATGTCTAGGTCCA; 3-14-3 chimeric gapmer, wing sugar chemistry not given here, further chemistry not given here) [compound 416892]", "%", 82],
  ["416838 (antisense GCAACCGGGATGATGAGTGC; 5-10-5 gapmer, wing sugar chemistry not given here, further chemistry not given here) [compound 416838]", "%", 71],
  ["416864 (antisense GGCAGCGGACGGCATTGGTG; 5-10-5 gapmer, wing sugar chemistry not given here, further chemistry not given here) [compound 416864]", "%", 76],
  ["416999 (antisense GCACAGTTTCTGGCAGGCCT; 2-13-5 gapmer, wing sugar chemistry not given here, further chemistry not given here) [compound 416999]", "%", 71]
]}

Then this substance:
Tell me the measured percent inhibition of human Factor XI mRNA of 416858 (antisense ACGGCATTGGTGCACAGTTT; 5-10-5 gapmer, wing sugar chemistry not given here, further chemistry not given here) [compound 416858] , please.
74

* * *

Test: Tolerability in CD1 mice: hematology assays (Example 21)
Type: in vivo
Conditions: 50 mg/kg s.c. twice per week for 6 weeks
measurement.label: RBC

Sample answers from the record:
{"columns": ["residue.sequence", "RBC"],
 "data": [
  ["GCATTGGTGCACAGTTTCTG (antisense; all C 5-methyl, all phosphorothioate, sugars by position not given here; MOE gapmer, 5-10-5) [ISIS 412224, 5-10-5 MOE gapmer]", "10 10^6/μL"],
  ["GCAGCGGACGGCATTGGTGC (antisense; all C 5-methyl, all phosphorothioate, sugars by position not given here; MOE gapmer, 5-10-5) [ISIS 412225, 5-10-5 MOE gapmer]", "9 10^6/μL"],
  ["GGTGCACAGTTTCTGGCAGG (all C 5-methyl, all phosphorothioate, sugars by position not given here; MOE gapmer) [ISIS 413481, 5-10-5 MOE gapmer]", "9 10^6/μL"],
  ["ACAGTTTCTGGCAGGCCTCG (antisense; all C 5-methyl, all phosphorothioate, sugars by position not given here; MOE gapmer, 5-10-5) [ISIS 412223, 5-10-5 MOE gapmer]", "9 10^6/μL"]
]}

Then this sequence:
Tell me the measured RBC of GGACGGCATTGGTGCACAGT (antisense; all C 5-methyl, all phosphorothioate, sugars by position not given here; MOE gapmer, 5-10-5) [ISIS 413482, 5-10-5 MOE gapmer] , please.
10 10^6/μL

* * *

Catalogue of substances with associated percent inhibition of human Factor XI mRNA
Test system: human Factor XI mRNA
Test: Dose-dependent inhibition in HepB3 cells, lipofectin (Example 7)
Format: cell-based
Conditions: 75 nM, approx. 16 h
Could you give me the number in %? Just the number is fine.

// lookup percent inhibition of human Factor XI mRNA | system=human Factor XI mRNA | key= 416825 (antisense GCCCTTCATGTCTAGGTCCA; 5-10-5 gapmer, wing sugar chemistry not given here, further chemistry not given here) [compound 416825]
59

Entry to check: 416850 (antisense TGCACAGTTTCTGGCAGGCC; 5-10-5 gapmer, wing sugar chemistry not given here, further chemistry not given here) [compound 416850]
60

Entry to check: 416826 (antisense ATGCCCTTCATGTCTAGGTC; 5-10-5 gapmer, wing sugar chemistry not given here, further chemistry not given here) [compound 416826]
66
